Where a SMILES comes first, the peptide text is derived from it. [ ]: non-standard residue; d: D form. Aun = NCCCCCCCCCCC(=O)O
IC50, Peptide N-myristoyltransferase (Candida albicans): measured values
// note: answer is a bare numeric in nM

Check out these entries, answers already filled in.
# compound, tested.on, IC50 / nM
records = [
    ("NCCCCCCCCCCC(=O)N[C@@H](CO)C(=O)N[C@@H](CCCCN)C(=O)NCCC1CCCCCCC1", "Peptide N-myristoyltransferase (Candida albicans)", 300),
    ("CC(C)CCNC(=O)[C@H](CCCCN)NC(=O)[C@H](CO)NC(=O)CCCCCCCCCCN", "Peptide N-myristoyltransferase (Candida albicans)", 780),
    ("CC(C)C[C@H](NC(=O)[C@H](CCCCN)NC(=O)[C@H](CO)NC(=O)CCCCCCCCCCN)C(N)=O (H-[Aun]SKL-NH2)", "Peptide N-myristoyltransferase (Candida albicans)", 1200),
    ("NCCCC[C@H](NC(=O)[C@H](CO)NC(=O)Cc1ccc(CCCCn2ccnc2)cc1)C(=O)NCCC1CCCCC1", "Peptide N-myristoyltransferase (Candida albicans)", 420),
]

Next compound, IC50 to be filled in.
Item `NCCCC[C@H](NC(=O)[C@H](CO)NC(=O)CCCCCCCCCCn1ccnc1)C(=O)NCCC1CCCCC1` has what recorded IC50?
1600

---

tested.on: Peptide N-myristoyltransferase (Homo sapiens, UniProt P30419+O60551)
test: Inhibitory activity against human N-Myristoyltransferase (NMT).
Format: protein assay
Where a SMILES comes first, the peptide text is derived from it. [ ]: non-standard residue; d: D form. Aun = NCCCCCCCCCCC(=O)O
Lab note: compare IC50 with 10000 nM, writing True if less and False if equal or more.

Below, 4 compounds whose answers are already recorded.
# compound, qualitative.label
measured = [
    ("NCCCC[C@H](NC(=O)[C@H](CO)NC(=O)Cc1ccc(CCCCn2ccnc2)cc1)C(=O)NCCC1CCCCC1", "False"),
    ("NCCCCCCCCCCC(=O)N[C@@H](CO)C(=O)N[C@@H](CCCCN)C(=O)NCCC1CCCCCCC1", "True"),
    ("NCCCC[C@H](NC(=O)[C@H](CO)NC(=O)CCCCCCCCCCn1ccnc1)C(=O)NCCC1CCCCC1", "False"),
    ("CC(C)CCNC(=O)[C@H](CCCCN)NC(=O)[C@H](CO)NC(=O)CCCCCCCCCCN", "True"),
]

Report whether reported IC50 is lower than 10000 nM (strictly) for CC(C)C[C@H](NC(=O)[C@H](CCCCN)NC(=O)[C@H](CO)NC(=O)CCCCCCCCCCN)C(N)=O (H-[Aun]SKL-NH2)
True

---

tested.on: Peptide N-myristoyltransferase (Homo sapiens, UniProt P30419+O60551)
test: Apparent binding affinity against Human NMT.
assay.metric: Ki (µM)
// note: answer is a bare numeric in µM

Item `NCCCC[C@H](NC(=O)[C@H](CO)NC(=O)CCCCCCCCCCn1ccnc1)C(=O)NCCC1CCCCC1` has what recorded Ki?
4.2

Sourced from ChEMBL document CHEMBL1128372
